Target: Glutamate receptor ionotropic, AMPA (Rattus norvegicus) (UniProt P19491+P19492+P19493+P19490)
Experiment: The compound was tested for the % displacement of [3H]AMPA binding to Ionotropic glutamate receptor AMPA in rat brain membranes at a concentration of 100 uM
Format: cell membranes
Experimental Readout: Displacement (%)

1. CC(C)(C)OC(=O)NC(Cc1cc([N+](=O)[O-])cc([N+](=O)[O-])c1O)C(=O)O (centres undefined)    17
2. COc1c(CC(NC(=O)OC(C)(C)C)C(=O)O)cc([N+](=O)[O-])cc1[N+](=O)[O-] (centres undefined)    26
3. COc1c(CC(N)C(=O)O)cc([N+](=O)[O-])cc1[N+](=O)[O-] (centres undefined)    66
4. CC(=O)NC(Cc1cc([N+](=O)[O-])cc([N+](=O)[O-])c1O)C(=O)O (centres undefined)    14
5. O=[N+]([O-])c1cc2nc(O)c(O)nc2cc1[N+](=O)[O-]    99
6. N[C@@H](Cc1cc([N+](=O)[O-])cc([N+](=O)[O-])c1O)C(=O)O    78
7. NC(Cc1cc([N+](=O)[O-])cc([N+](=O)[O-])c1O)C(=O)O (centres undefined)    76
8. N[C@H](Cc1cc([N+](=O)[O-])cc([N+](=O)[O-])c1O)C(=O)O    58
9. NC(Cc1ccccc1OCC(=O)O)C(=O)O (centres undefined)    20
